MEASUREMENT_TARGET: yeast α-glucosidase
EXPERIMENT_SUMMARY: α-Glucosidase inhibition assay (pNPG substrate)

{"columns": ["MOLECULE", "MEASUREMENT_TARGET", "RESULT_UNITS", "IC50"],
 "data": [
  ["O=C(O)/C=C/c1ccc(O)c(O)c1", "yeast α-glucosidase", "µM", 60.1],
  ["O=C(OC1C(Oc2c(-c3ccc(O)c(O)c3)oc3cc(O)cc(O)c3c2=O)OC(CO)C(O)C1O)c1cc(O)c(O)c(O)c1 (stereo not shown)", "yeast α-glucosidase", "µM", 8.59],
  ["O=c1c(O)c(-c2cc(O)c(O)c(O)c2)oc2cc(O)cc(O)c12", "yeast α-glucosidase", "µM", 0.52],
  ["COc1ccc(C2CC(=O)c3c(O)cc(O)cc3O2)cc1O (stereo not shown) [Compound 17, 4′-methoxy-5′,5,7-trihydroxyflavanone]", "yeast α-glucosidase", "µM", 15.3]
]}

* * *

Recorded pIC50 values for a group of compounds are listed next.
MEASUREMENT_TARGET: PTP1B (human, recombinant) (Homo sapiens)
Construct: purchased Sigma-Aldrich (St. Louis, MO, USA)
Sequence (P18031 whole entry): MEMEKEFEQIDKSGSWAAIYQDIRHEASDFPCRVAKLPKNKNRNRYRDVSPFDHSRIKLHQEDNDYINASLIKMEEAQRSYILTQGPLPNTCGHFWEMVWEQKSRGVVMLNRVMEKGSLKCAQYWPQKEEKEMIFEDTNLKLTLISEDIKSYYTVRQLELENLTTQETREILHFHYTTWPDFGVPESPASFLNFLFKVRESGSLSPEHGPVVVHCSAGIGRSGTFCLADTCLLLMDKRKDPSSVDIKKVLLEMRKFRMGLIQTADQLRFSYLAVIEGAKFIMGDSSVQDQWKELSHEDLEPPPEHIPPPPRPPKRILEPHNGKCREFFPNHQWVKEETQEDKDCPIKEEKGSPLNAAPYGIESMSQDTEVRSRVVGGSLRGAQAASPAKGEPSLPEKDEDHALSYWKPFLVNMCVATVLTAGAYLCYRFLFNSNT
EXPERIMENT_SUMMARY: PTP1B inhibition assay (pNPP substrate)
Format: biochemical
TEST_SETTINGS: read-out: PTP1B IC50
pIC50: −log10 of the molar value.
ASSAY_ENDPOINT: pIC50

{"columns": ["COMPOUND", "LIMIT_QUALIFIER", "RECORDED_MEASUREMENT"],
 "data": [
  ["O=c1c(O)c(-c2cc(O)c(O)c(O)c2)oc2cc(O)cc(O)c12 [Compound 13, myricetin]", "=", 5.45],
  ["Oc1cc(O)c2c(c1)O[C@H](c1ccc(O)c(O)c1)[C@@H](O)C2 [Compound 18, catechin]", "=", 4.29],
  ["COc1cc(C(=O)O)cc(OC)c1O [Compound 23, syringic acid]", "<", 4.00],
  ["C[C@@H]1O[C@@H](Oc2c(-c3cc(O)c(O)c(O)c3)oc3cc(O)cc(O)c3c2=O)[C@H](O)[C@H](O)[C@H]1O [Compound 8, myricetin-3-O-α-L-rhamnopyranoside]", "=", 4.15],
  ["O=C(OC1C(Oc2c(-c3ccc(O)c(O)c3)oc3cc(O)cc(O)c3c2=O)OC(CO)C(O)C1O)c1cc(O)c(O)c(O)c1 (centres unmarked) [Compound 2]", "=", 5.25]
]}

* * *

Recorded IC50 values for a group of compounds are listed next.
MEASUREMENT_TARGET: PTP1B (human, recombinant) (Homo sapiens)
Construct: purchased Sigma-Aldrich (St. Louis, MO, USA)
EXPERIMENT_SUMMARY: PTP1B inhibition assay (pNPP substrate)
Type: biochemical

{"columns": ["STRUCTURE_STRING", "MEASUREMENT_TARGET", "RESULT_UNITS", "LIMIT_QUALIFIER", "IC50"],
 "data": [
  ["COc1ccc(C(=O)O)cc1OC", "PTP1B (human, recombinant) (Homo sapiens)", "µM", ">", 100],
  ["O=C(O)c1cc(O)c(O)c(O)c1", "PTP1B (human, recombinant) (Homo sapiens)", "µM", "=", 79.1]
]}

* * *

Recorded IC50 values for a group of molecules are listed next.
MEASUREMENT_TARGET: yeast α-glucosidase
EXPERIMENT_SUMMARY: α-Glucosidase inhibition assay (pNPG substrate);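 also: enzyme and compounds preincubated 5 min at 37 °C, then pNPG hydrolysis run 30 min at 37 °C in phosphate buffer pH 6.8, compared against 1% DMSO blank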

{"columns": ["MOLECULE", "IC50"],
 "data": [
  ["C[C@@H]1O[C@@H](OC[C@H]2O[C@@H](Oc3c(-c4ccc(O)c(O)c4)oc4cc(O)cc(O)c4c3=O)[C@H](O)[C@@H](O)[C@@H]2O)[C@H](O)[C@H](O)[C@H]1O [Compound 4, quercetin-3-O-rutinoside]", "25.3 µM"],
  ["O=C(O)c1ccc(O)c(O)c1 [Compound 20, protocatechuic acid]", "45.1 µM"],
  ["COc1cc(C(=O)O)cc(OC)c1OC [Compound 24, 3,4,5-trimethoxybenzoic acid]", "> 100 µM"],
  ["O=C(O)c1cc(O)c(O)c(O)c1 [Compound 22, gallic acid]", "43.6 µM"],
  ["COc1cc(/C=C/C(=O)O)ccc1O [Compound 26, ferulic acid]", "90.9 µM"],
  ["O=C1c2c(O)cc(O)cc2O[C@H](c2cc(O)c(O)c(O)c2)[C@H]1O [Compound 15, dihydromyricetin]", "7.56 µM"],
  ["O=c1c(O[C@@H]2O[C@H](CO)[C@H](O)[C@H](O)[C@H]2O)c(-c2ccc(O)c(O)c2)oc2cc(O)cc(O)c12 [Compound 9, quercetin-3-O-galactoside]", "52.2 µM"],
  ["CC1OC(Oc2c(-c3ccc(O)cc3)oc3cc(O)cc(O)c3c2=O)C2OC(C)(C)OC2C1O (stereo not drawn) [Compound 1]", "60.5 µM"],
  ["COc1ccc(C(=O)O)cc1OC [Compound 21, 3,4-dimethoxybenzoic acid]", "> 100 µM"],
  ["C[C@@H]1O[C@@H](O[C@H]2[C@H](Oc3cc(O)c4c(c3)OC(c3ccc(O)cc3)CC4=O)O[C@H](CO)[C@@H](O)[C@@H]2O)[C@H](O)[C@H](O)[C@H]1O (stereo partly drawn) [Compound 10]", "69.4 µM"],
  ["C[C@@H]1O[C@@H](Oc2c(-c3cc(O)c(O)c(O)c3)oc3cc(O)cc(O)c3c2=O)[C@H](O)[C@H](O)[C@H]1O [Compound 8, myricetin-3-O-α-L-rhamnopyranoside]", "49.4 µM"],
  ["O=c1oc2c(O)c(O)cc3c(=O)oc4c(O)c(O)cc1c4c23 [Compound 19, ellagic acid]", "9.45 µM"]
]}
